# System Tested: Replicase polyprotein 1ab (Severe acute respiratory syndrome coronavirus 2)
# Procedure Summary: Inhibition of N7-MTase activity of SARS-CoV-2 N-terminus hexahistidine tag nsp14 expressed in Escherichia coli C2566 at 5 uM using [3H]SAM as substrate incubated for 30 mins in presence of mGpppAC4 synthetic RNA by filter binding assay relative to control
Measured Quantity: inhibition (%)
Only the number, expressed in %, is required.

{"Smiles Data": "COc1ccc(S(=O)(=O)N(CCCCOC(C)=O)C[C@H]2O[C@@H](n3cnc4c(N)ncnc43)[C@H](O)[C@@H]2O)cc1[N+](=O)[O-]", "inhibition [%]": 100}
{"Smiles Data": "CCN(C[C@H]1O[C@@H](n2cnc3c(N)ncnc32)[C@H](O)[C@@H]1O)S(=O)(=O)c1ccc(C(F)(F)F)cc1[N+](=O)[O-]", "inhibition [%]": 84}
{"Smiles Data": "Nc1ncnc2c1ncn2[C@@H]1O[C@H](CNS(=O)(=O)c2ccc(Cl)c(Cl)c2)[C@@H](O)[C@H]1O", "inhibition [%]": 87}
{"Smiles Data": "Nc1ncnc2c1ncn2[C@@H]1O[C@H](CNS(=O)(=O)c2cccc(Cl)c2)[C@@H](O)[C@H]1O", "inhibition [%]": 20}
{"Smiles Data": "CCc1ccc(S(=O)(=O)NC[C@H]2O[C@@H](n3cnc4c(N)ncnc43)[C@H](O)[C@@H]2O)cc1[N+](=O)[O-]", "inhibition [%]": 98}
{"Smiles Data": "CCN(C[C@H]1O[C@@H](n2cnc3c(N)ncnc32)[C@H](O)[C@@H]1O)S(=O)(=O)c1ccc(Cl)c(Cl)c1", "inhibition [%]": 100}
{"Smiles Data": "COc1ccc(S(=O)(=O)NC[C@H]2O[C@@H](n3cnc4c(N)ncnc43)[C@H](O)[C@@H]2O)c([N+](=O)[O-])c1", "inhibition [%]": 70}
{"Smiles Data": "CCN(C[C@H]1O[C@@H](n2cnc3c(N)ncnc32)[C@H](O)[C@@H]1O)S(=O)(=O)c1ccc(OC)c([N+](=O)[O-])c1", "inhibition [%]": 100}
{"Smiles Data": "Nc1ncnc2c1ncn2[C@@H]1O[C@H](CNS(=O)(=O)c2ccc([N+](=O)[O-])cc2Cl)[C@@H](O)[C@H]1O", "inhibition [%]": 21}
{"Smiles Data": "Nc1ncnc2c1ncn2[C@@H]1O[C@H](CNS(=O)(=O)c2ccc(Br)c([N+](=O)[O-])c2)[C@@H](O)[C@H]1O", "inhibition [%]": 85}

Answer with the recorded inhibition of CCN(C[C@H]1O[C@@H](n2cnc3c(N)ncnc32)[C@H](O)[C@@H]1O)S(=O)(=O)c1ccc(C)c([N+](=O)[O-])c1 only.
100

Answer with the recorded inhibition of Nc1ncnc2c1ncn2[C@@H]1O[C@H](CNS(=O)(=O)c2ccc(Cl)cc2)[C@@H](O)[C@H]1O only.
25

Answer with the recorded inhibition of COc1ccc(S(=O)(=O)N(CCCCNc2cccc3ccccc23)C[C@H]2O[C@@H](n3cnc4c(N)ncnc43)[C@H](O)[C@@H]2O)cc1[N+](=O)[O-] only.
100

Answer with the recorded inhibition of COc1ccc(S(=O)(=O)NC[C@H]2O[C@@H](n3cnc4c(N)ncnc43)[C@H](O)[C@@H]2O)cc1[N+](=O)[O-] only.
90

Answer with the recorded inhibition of CCOC(=O)CCCCN(C[C@H]1O[C@@H](n2cnc3c(N)ncnc32)[C@H](O)[C@@H]1O)S(=O)(=O)c1ccc(OC)c([N+](=O)[O-])c1 only.
100

Answer with the recorded inhibition of CCN(C[C@H]1O[C@@H](n2cnc3c(N)ncnc32)[C@H](O)[C@@H]1O)S(=O)(=O)c1cccc(Cl)c1 only.
65

Answer with the recorded inhibition of CCN(C[C@H]1O[C@@H](n2cnc3c(N)ncnc32)[C@H](O)[C@@H]1O)S(=O)(=O)c1ccc(Br)c([N+](=O)[O-])c1 only.
100

Answer with the recorded inhibition of N#Cc1cccc(S(=O)(=O)NC[C@H]2O[C@@H](n3cnc4c(N)ncnc43)[C@H](O)[C@@H]2O)c1 only.
80

Answer with the recorded inhibition of CCN(C[C@H]1O[C@@H](n2cnc3c(N)ncnc32)[C@H](O)[C@@H]1O)S(=O)(=O)c1ccc(C)c(Cl)c1 only.
95

Answer with the recorded inhibition of CCN(C[C@H]1O[C@@H](n2cnc3c(N)ncnc32)[C@H](O)[C@@H]1O)S(=O)(=O)c1cccc([N+](=O)[O-])c1 only.
75

Answer with the recorded inhibition of CCN(C[C@H]1O[C@@H](n2cnc3c(N)ncnc32)[C@H](O)[C@@H]1O)S(=O)(=O)c1ccc(OC)c(C#N)c1 only.
100

Answer with the recorded inhibition of N#Cc1cc(S(=O)(=O)NC[C@H]2O[C@@H](n3cnc4c(N)ncnc43)[C@H](O)[C@@H]2O)ccc1Cl only.
100
